# maps each entry to its melting point

# count of solved cases: 3
[[record]]
compound_string = "CCOC(=O)c1cnn(-c2nc(-c3cccc(C(F)(F)F)c3)cs2)c1C"
result = "138 to 138.5 °C"

[[record]]
compound_string = "O=C(O)c1cnn(-c2nc(-c3cc(C(F)(F)F)cc(C(F)(F)F)c3)cs2)c1C(F)(F)F"
result = "204 to 204.7 °C"

[[record]]
compound_string = "Cc1c(C(=O)O)cnn1-c1nc(-c2ccc(C(F)(F)F)cc2)cs1"
result = "273 to 274 °C"


Field request: melting point | item: Cc1c(C(=O)O)cnn1-c1nc(-c2cc(C(F)(F)F)cc(C(F)(F)F)c2)cs1 260.9 to 261.4 °C
